The origin of these recorded values is patent US20260306527A1.

Target: PRMT6 (Homo sapiens)
Sequence (Q96LA8 whole entry, species assumed): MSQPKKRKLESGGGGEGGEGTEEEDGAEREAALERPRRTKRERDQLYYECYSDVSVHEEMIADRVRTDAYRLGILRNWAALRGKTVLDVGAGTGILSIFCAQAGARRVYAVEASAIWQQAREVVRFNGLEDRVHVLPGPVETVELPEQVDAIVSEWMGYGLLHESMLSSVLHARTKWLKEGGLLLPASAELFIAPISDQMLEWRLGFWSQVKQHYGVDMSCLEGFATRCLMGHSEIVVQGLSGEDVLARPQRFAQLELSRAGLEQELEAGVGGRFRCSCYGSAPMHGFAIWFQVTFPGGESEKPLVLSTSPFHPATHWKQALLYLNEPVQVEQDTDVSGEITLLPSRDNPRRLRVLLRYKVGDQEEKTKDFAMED
Assay: radioactive assay (Reaction Biology Corp.), inhibition of PRMT6
Type: biochemical
recordedEndpoint: inhibition at 10 µM (%)
Provide the reading as a plain figure in %.

For N=C(NCCCSC[C@H]1O[C@@H](n2cnc3c(N)ncnc32)[C@H](O)[C@@H]1O)Nc1cccc(Br)c1 , write its inhibition at 10 µM.
100

Identify inhibition at 10 µM associated with the compound Nc1cccc(-c2ccc(CNC(=O)NCCSC[C@H]3O[C@@H](n4cnc5c(N)ncnc54)[C@H](O)[C@@H]3O)cc2)c1
79

Return reported inhibition at 10 µM. Input compound: N=C(NCCCSC[C@H]1O[C@@H](n2cnc3c(N)ncnc32)[C@H](O)[C@@H]1O)Nc1cccc(-c2cccc(F)c2)c1
97

Answer with the recorded inhibition at 10 µM for the compound listed here: Nc1ncnc2c1ncn2[C@@H]1O[C@H](CSCCCNCc2cccc(-c3cncnc3)c2)[C@@H](O)[C@H]1O [Compound 10s]
65

Look up and report measured inhibition at 10 µM for this entry: Nc1ncnc2c1ncn2[C@@H]1O[C@H](CSCCOc2ccc(-c3ccc(O)cc3)cc2)[C@@H](O)[C@H]1O [Compound 14b]
20

Note down inhibition at 10 µM recorded for N=C(NCCSC[C@H]1O[C@@H](n2cnc3c(N)ncnc32)[C@H](O)[C@@H]1O)Nc1cccc(I)c1
98

Give the measured inhibition at 10 µM for Nc1ncnc2c1ncn2[C@@H]1O[C@H](CSCCNC(=O)Nc2cccc3ccccc23)[C@@H](O)[C@H]1O
2
